For each entry below, report its IC50 value.
Target: Human immunodeficiency virus type 1 protease (Human immunodeficiency virus 1, UniProt Q72874)
Assay: Inhibition of HIV protease
Kindly provide the numeric value in nM only, without the unit symbol.

Ask: Check the records and state IC50 for CC(C)(C)OC(=O)N[C@@H](Cc1ccccc1)[C@@H](O)C[C@@H](Cc1ccccc1)C(=O)NC1c2ccccc2C[C@H]1C(N)=O (some centres undefined)
Result: 1.8

Ask: Check the records and state IC50 for CC(C)(C)OC(=O)N[C@@H](Cc1ccccc1)[C@@H](O)C[C@@H](Cc1ccccc1)C(=O)NC1CCCc2ccccc21 (some centres undefined)
Result: 16

Ask: Check the records and state IC50 for CC(C)(C)OC(=O)N[C@@H](Cc1ccccc1)[C@@H](O)C[C@@H](Cc1ccccc1)C(=O)N[C@H]1c2ccccc2[C@@H](O)[C@H]1O
Result: 0.1

Ask: Check the records and state IC50 for CC(C)(C)OC(=O)N[C@@H](Cc1ccccc1)[C@@H](O)C[C@@H](Cc1ccccc1)C(=O)NCCc1ccccc1
Result: 2800

====

For each entry below, report its pIC50 value.
Target: UniProtKB Q72874
Experiment: Inhibition of HIV protease
Interpret pIC50 as the negative base-10 log of the concentration measured in mol/L.

Ask: Check the records and state pIC50 for CC(C)(C)OC(=O)N[C@@H](Cc1ccccc1)[C@@H](O)C[C@@H](Cc1ccccc1)C(=O)N[C@H]1c2ccccc2C[C@@H]1O (stereo in doubt; 10)
Result: 6.64

Ask: Check the records and state pIC50 for CC(C)(C)OC(=O)N[C@@H](Cc1ccccc1)[C@@H](O)C[C@@H](Cc1ccccc1)C(=O)N[C@H]1c2ccccc2C[C@@H]1O (stereo in doubt; 8)
Result: 6.59

Ask: Check the records and state pIC50 for CC(C)(C)OC(=O)N[C@@H](Cc1ccccc1)[C@@H](O)C[C@@H](Cc1ccccc1)C(=O)N[C@H]1CCc2ccccc21
Result: 7.68

Ask: Check the records and state pIC50 for CC(C)(C)OC(=O)N[C@@H](Cc1ccccc1)[C@@H](O)C[C@@H](Cc1ccccc1)C(=O)NC1c2ccccc2[C@@H](N)[C@H]1O (stereo partly drawn)
Result: 8.72

Ask: Check the records and state pIC50 for CC(C)(C)OC(=O)N[C@@H](Cc1ccccc1)[C@@H](O)C[C@@H](Cc1ccccc1)C(=O)N[C@H]1c2ccccc2C[C@H]1O
Result: 9.52

Ask: Check the records and state pIC50 for CC(C)(C)OC(=O)N[C@@H](Cc1ccccc1)[C@@H](O)C[C@@H](Cc1ccccc1)C(=O)NC1Cc2ccccc2C1
Result: 6.89

Ask: Check the records and state pIC50 for CC(C)(C)OC(=O)N[C@@H](Cc1ccccc1)[C@@H](O)C[C@@H](Cc1ccccc1)C(=O)NC1Cc2ccccc21 (stereo partly drawn)
Result: 7.66

Ask: Check the records and state pIC50 for CC(C)(C)OC(=O)N[C@@H](Cc1ccccc1)[C@@H](O)C[C@@H](Cc1ccccc1)C(=O)N[C@@H]1CCc2ccccc21
Result: 7.72
